system: human umbilical vein endothelial cells (HUVEC); assay: HUVEC proliferation assay (VEGF-stimulated, MTT); type: cell-based; details: Library II, Y=S; 0.5 mM (column head; text: nominal 0.5 nM); crude reaction mixtures;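 note: relative to VEGF-stimulated control minus starvation-medium baseline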
Could you please report measured % inhibition of the proliferation of HUVEC for the items listed next?
Reply with a number, then the unit it belongs to.

                                   molecule  result
0  NC(=O)NNC(=O)c1ccccc1Sc1ccc2c(/C=C/c3ccccn3)n[nH]c2c1     19%
1  O=C(NC1CCC(O)CC1)c1ccccc1Sc1ccc2c(C=Cc3ccccn3)n[nH]c2c1 (stereo not shown)     23%
2  CC(C)CCNC(=O)c1ccccc1Sc1ccc2c(/C=C/c3ccccn3)n[nH]c2c1 [drawing 614]     14%

Give % inhibition of the proliferation of HUVEC for each of the items listed below.
1. O=C(NC(CO)CO)c1ccccc1Sc1ccc2c(/C=C/c3ccccn3)n[nH]c2c1
2. O=C(NCC1OCCO1)c1ccccc1Sc1ccc2c(/C=C/c3ccccn3)n[nH]c2c1
3. CCC(O)CNC(=O)c1ccccc1Sc1ccc2c(/C=C/c3ccccn3)n[nH]c2c1 (stereo not shown)
4. COCCCNC(=O)c1ccccc1Sc1ccc2c(/C=C/c3ccccn3)n[nH]c2c1
5. N=C(N)CNC(=O)c1ccccc1Sc1ccc2c(/C=C/c3ccccn3)n[nH]c2c1
6. CNNC(=O)c1ccccc1Sc1ccc2c(/C=C/c3ccccn3)n[nH]c2c1
7. CCCCCCNC(=O)c1ccccc1Sc1ccc2c(/C=C/c3ccccn3)n[nH]c2c1

result:
1: 48%; 2: 35%; 3: 13%; 4: 26%; 5: 7%; 6: 13%; 7: 21%

---

What AUClast was measured for each of the following?
test: Determination of inhibitor concentration in mouse plasma after intraperitoneal and oral dosing; assay type: in vivo; conditions: PO, 50 mg/kg, vehicle PEG400:H2O pH 2.3 30:70
One number for each entry, in ng·h/mL.

>>> print(df.to_string())
                                   molecule  readout_number
0  O=C(NC1CCC1)c1ccccc1Sc1ccc2c(/C=C/c3ccccn3)n[nH]c2c1 [Example 35(c)]            4744
1  C#CCNC(=O)c1ccccc1Sc1ccc2c(/C=C/c3ccccn3)n[nH]c2c1 [Example 35(cc)]            1718

Dear colleague, could you send me AUClast for each of the items below? Thanks.
1. Cc1cc(C(=O)Nc2cccc(Oc3ccc4c(/C=C/c5ccccn5)n[nH]c4c3)c2)nn1C [Example 31(b)]
2. C[C@@H]1C[C@H]1C(=O)Nc1cccc(C(=O)c2ccc3c(/C=C/c4ccccn4)n[nH]c3c2)c1 (racemic) [Example 41(h)]

result:
1. 2071
2. 4677

// for each molecule in input: emit AUClast
1. O=C(c1cccc(NC(=O)C2C[C@H]2c2ccccc2)c1)c1ccc2c(/C=C/c3ccccn3)n[nH]c2c1 (stereo partly shown) [Example 41(l)]
2. O=C(Nc1nccs1)c1ccccc1Sc1ccc2c(/C=C/c3ccccn3)n[nH]c2c1 [Example 35(y)]
3. COc1cccc(C(=O)Nc2cccc(C(=O)c3ccc4c(/C=C/c5ccccn5)n[nH]c4c3)c2)c1 [Example 41(bb)]
4. CCOCCNC(=O)c1ccccc1Sc1ccc2c(/C=C/c3ccccn3)n[nH]c2c1 [Example 35(z)]
5. C=CCONC(=O)c1ccccc1Sc1ccc2c(/C=C/c3ccccn3)n[nH]c2c1 [Example 35(j)]

result:
212
58
2178
1001
1328
